Biological target: VIM-1 (Pseudomonas aeruginosa (strain ATCC 15692 / DSM 22644 / CIP 104116 / JCM 14847 / LMG 12228 / 1C / PRS 101 / PAO1), UniProt A0A0F7KYQ8)
Assay: Enzyme activity: determination of IC50, fluorescence assay with CCF2-FA substrate (VIM-1)
Format: biochemical
Conditions: VIM-1 enzyme, CCF2-FA substrate; read-out: VIM-1 IC50
Measurement kind: IC50 (nM)
Express the result in nM but write the number alone.

# count of solved cases: 7
NC(=O)CN1CCC(Cc2ccc(-c3ccc(C4CNC4)cc3)c(-c3nn[nH]n3)c2S(N)(=O)=O)CC1; 1.64
NC1(c2ccc(-c3ccc(C(F)(F)F)c(S(N)(=O)=O)c3-c3nnn[nH]3)cc2)CCCC1; 7.37
NC[C@H]1CC[C@H](c2ccc(CC3CCNCC3)c(S(N)(=O)=O)c2-c2nn[nH]n2)CC1 [Example 589]; 93.9
NS(=O)(=O)c1c(C(F)(F)F)ccc([C@H]2CC[C@@H](O)CC2)c1-c1nnn[nH]1; 22.1
NS(=O)(=O)c1c(C(F)(F)F)ccc(N2CCC[C@@H](O)C2)c1-c1nnn[nH]1; 0.999
NS(=O)(=O)c1c(CCO)ccc(-c2cccc3ncccc23)c1-c1nn[nH]n1; 0.3
Nc1ccc(-c2ccc(C(F)(F)F)c(S(N)(=O)=O)c2-c2nnn[nH]2)nc1; 2.35

Supply recorded IC50 for NS(=O)(=O)c1cccc(-c2ccc(C3CCN(CC4CNC4)CC3)cc2)c1-c1nnn[nH]1 here.
334

Numbers sourced from patent US9708336B2.
